Source listed as the supplement of paper PMC9170038.

Test system: MS2 coat protein
ASSAY OVERVIEW: apparent KD of MS2 coat protein; higher = weaker reporter binding
TEST CONDITIONS: Eterna round: R107; input ligand: theophylline 20 uM
The sequences listed here are annotated with their apparent KD of MS2 coat protein.
// units = µM; emit number, no label

Below, each entry is followed by its recorded apparent KD of MS2 coat protein result.
>  <SEQUENCE RECORD>
CCAUUGAUGACGGCCGCCACUGUCUACAUGAGGAUCACCCAUGUAUAGCAGGGUGGACCUAUGGACAGGACCGGGUCACUUGUCC [Tryp B Ex t7]

>  <UNIT TEXT>
µM

>  <apparent KD of MS2 coat protein>
0.0137

$$$$
>  <SEQUENCE RECORD>
AGUAUCAGUGGAAGGAGCGUCGCGAAUGUCACAUGAGGAUCACCCAUGUCGUCUUGAGCGCGACAGGUAGGUCGCCACGGUAGGC [SS-ArgB4]

>  <UNIT TEXT>
µM

>  <apparent KD of MS2 coat protein>
0.0159

$$$$

// field: apparent KD of MS2 coat protein; key: AUCGUACCUGAGGAUACCAGCAUGUGAUCAUAACAUGAGGAUCACCCAUGUAAUCAGUGAUGCCCUUGGCAGCUUGGUCGAUACA [Same State - Theophylline B (Freestyle 9)] ; value = 0.075

Kindly note the recorded apparent KD of MS2 coat protein for CACGAAAGAUCGGCCGCCACUAUUUGAUGUGUUCUUUCACAUGAGGAUCACCCAUGUUCUUUCUUUAGGACCGGGAUUGAGCGUG [ETB #1] , which is 0.126

* * *

Tested on: MS2 coat protein
ASSAY OVERVIEW: apparent KD of MS2 coat protein; higher = weaker reporter binding
TEST CONDITIONS: Eterna round: R107; input ligand: theophylline 20 uM
apparent KD of MS2 coat protein for assorted sequences
Respond with the bare value in nM.

Bench note, MS2 coat protein: entry AAAAUAGAAGGAAGACAAAUAGAUACAGAAGGAGCGUAGGAAACUACAGGUAGGUCGCUGGAAAACAUGAGGAUCACCCAUGUAG [SSArg A #22 Slice of Pi Skeleton] , its apparent KD of MS2 coat protein = 54

* * *

System: MS2 coat protein
ASSAY OVERVIEW: apparent KD of MS2 coat protein, switch OFF state (with FMN for OFF switches, without FMN for ON switches); designed switch direction (-1 OFF switch, 1 ON switch): 1; higher = weaker reporter binding
TEST CONDITIONS: FMN input: 0 or 200 uM; Eterna round: R93 (includes R88 designs)
// thresholds for apparent KD of MS2 coat protein classes: low: < 50 nM; moderate: ≥ 50 nM and < 80 nM; high: ≥ 80 nM

>  <SEQUENCE RECORD>
AGAAAACAUGAGGAUCACCCAUGUGACAAUAUGGGAGGAUAUACCAAGACGAAAGUCGAAGUAGAAGGCCUAAAGA [Garnet 51]

>  <ASSIGNED CATEGORY>
moderate

$$$$

Which class is correct for the following sequence? UAACAGCACAGGUAGGAUAUGUAGGGUGGUACAUGAGGAUCACCCAUGUAUCCACCCUUCGAAAGGCAGAAGGGCCUGUCGCUAC [Velabibe]
low

Could you place AUAAAAGAAGCGAAGGAUAUCCAAAACCUAACAUGAGGAUCACCCAUGUAAAGAAAGAAAAAAUGGGAGAAGGUCGCAAAGAAUA [73%, More Fisker Same State 2, D3, 9] in its proper category? Many thanks.
low

Which category fits this record: GUAGAACAUGAGGAUCACCCAUGUGAAGACGCAUGAGGAUAUAUACGUAAAUAGCAUACGAUAGAAGGCAUGAUAA [JR_SS001_Sub1703]
moderate

Hi, small favor: classify AUAAAGAAAACACAGGAUAUCCAAAAGAAAACAUGAGGAUCACCCAUGUAAAGAAAAUAAAAAUGGGAGAAGGGUGAAAGAAAUA [Mat - Same State 2 - JL mod - D40] by its apparent KD of MS2 coat protein when you get a moment.
high

Determine which band this sequence sits in: GAAAAACAUGAGGAUCACCCAUGUAGAAAUAUGGGAGGAUAUACGAAGACGAAAGUCAAAGUAGAAGGCCUAAAAG [Mat - Same State 1 - Eli mod - D22]
moderate

The entry to classify is CAGAGGAAGAGAGAGGAUAUCCAAAGGAAAACAUGAGGAUCACCCAUGUAAAAGGUAGGAAAUUGGGAGAAGGCUCAAGAGAGAG [salish99-ss2-064] ; which class holds it?
low

Please report the category associated with AAUAACUAUAGCAAGGAUAUCCGAAACAAGACAUGAGGAUCACCCAUGUAAUAAGACAAAAUAUAGGAGAAGGUGCAGGGUGAAA [JR_SS002_Sub010] , nothing else.
high

For AAAUAAAUGACUGAGGAUAUAUCGAUGAAAACAUGAGGAUCACCCAUGUGAUAAUAAAAAGGGUGAUAGAAGGUAGUCAACAAAC [Mod 11 of Pariah 4 by Hyphema in Round 1] , which apparent KD of MS2 coat protein bin applies?
high

* * *

Tested on: K4 kissing-loop RNA reporter;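 also: bound reporter read as fluorescence of individual clusters on recovered sequencing chips by microscopy, with normalized cluster intensities fitted with a binding model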
ASSAY OVERVIEW: apparent KD of K4 kissing-loop reporter; higher = weaker reporter binding
TEST CONDITIONS: Eterna round: R107; input ligand: none
QUANTITY MEASURED: apparent KD of K4 kissing-loop reporter (nM)
Report only the number, with the unit nM understood.

# apparent KD of K4 kissing-loop reporter of UGCUUUAUCAGAAGGAGCGCGUUAUUCAUAAUAAUAAUCAGUGAUGUUGAUAUAUGAUGAUUGCAGGUAGGUCGCUGAUAUAGCU [KL-XARG-B3] = 274

So, GCGGGCCCUGGAGGAUAUGAGUCGAGUGAUGUUCGGCGGUCCAUGCCGAUGCGGCGUUAUGCCCUUUUAGAAGGCCAGGGUCCGC [#2 Exclusion - FMN B Attempt #8 (HarryS)] ? Its apparent KD of K4 kissing-loop reporter was 283

// sample AAAAUAAAUCAGUGAUGUUGGUAUCCGGAUACCAGCGAUAAUCAUCGCCCUUGGCAGCCGCGGACGUACAAAAUAAGUACGUCCU [MatMod 15 - Jieux - Same State - Theophylline A] , its apparent KD of K4 kissing-loop reporter was 218

Recorded apparent KD of K4 kissing-loop reporter (sequence UACACGACUCGUGUAAACCGAGGUAACAGGCAGGAUAUGUAACGGAACAGAAGGGCCAUGUUGCGUGUCCAGUGAUGUUGGAUGC [Vetedile] ): 270

Looking up UGAUCACAGUGAUGUUGUGGCAAAAGUGAUACCAGCCGUGUACGAGGCCCUUGGCAGCACCAGGGCUGUACGUCGUUAGAUCCGG [theeternabot_exclusion_KL_Theo_A_33] , I found its apparent KD of K4 kissing-loop reporter recorded as 194

Per the records, this sequence ( AAGUGAUGUUGUAGUGAUGUUGUGAUGUUGCAGGAUAUAUAGUGAUGUAGAAGGGUAUGUGCAGUGUUGUUGUUUGAGUGUUGAU [twwumullin] ) has apparent KD of K4 kissing-loop reporter equal to 74.7

So, GGCAGUGAUGUUGCCUAAGCAACGCAUGCGGAGGAUAUUCGUUCGGGAAGAAGGCCGCAGCGUUCUCUCGCGAGUGAUGUUCGCA [Same State FMN A GF 22] ? Its apparent KD of K4 kissing-loop reporter was 173

Briefly, apparent KD of K4 kissing-loop reporter measured for UAAGAAUAAGUAGCAGUGAUGUUGCUACUACGAGGACCGGUACGGCCGCCACUCGAAUACGAGUGGAAGUAGCAACUACCACUCA [(H1)-(H2)-(Trp1)-(Trp2)-(T)'-(H)'-(T)''_Design7] : 125

apparent KD of K4 kissing-loop reporter reported for this sequence AAUAUAAAGUCGGCCGCCACUGGAUUUAUAUUUGUUAAAUCUGGAUCAAAGUGAUGUUUUGAGUCCAGGACCGGGACAAUUGUUA [JR_ExcTryptoB_Sub001] : 120

# apparent KD of K4 kissing-loop reporter (sequence: CGAGUGAUGUUCGUUUUUUACUCUUUUUGACAGGAUAUGCGGAAACGCAGAAGGGUCACCUUUGAGUUAAAAGGAGUUAUUUUUU [Ex FMN A 19] ) is 318

GET /value?item= CCGAUACAUUAUUCUACGGCCGAGAGCGAUACCAGCCAAAUUUAUGGCCCUUGGCAGCGCAGAUGCAGUGAUGUUGCAUACAUAC [Same State Theophylline A GF 18] &field=apparent KD of K4 kissing-loop reporter returns 95.6

* * *

Test system: MS2 coat protein
ASSAY OVERVIEW: apparent KD of MS2 coat protein; higher = weaker reporter binding
TEST CONDITIONS: Eterna round: R107; input ligand: arginine 13.2 mM
QUANTITY MEASURED: apparent KD of MS2 coat protein (nM)
Number in nM, nothing else.

Before answering, review these 4 worked examples.
>  <SEQUENCE RECORD>
UAUAUAUAGAUGGAUACCAGCAGAGAAAACGUUUAUCCUAACAUGAGGAUCACCCAUGUAUGCCCUUGGCAGCUGUUUAUAUAUA [8.I]

>  <TARGET SYSTEM>
MS2 coat protein

>  <UNIT TEXT>
nM

>  <ENDPOINT RESULT>
18.9

$$$$
>  <SEQUENCE RECORD>
ACGGAUCGGAAACGAUCCGCGGCAAGGGUACGAGGACCGGUACGGCCGCCACUCGGCUAACAUGAGGAUCACCCAUGUCCGAAGA [ETA NP+V+V2 #8]

>  <TARGET SYSTEM>
MS2 coat protein

>  <UNIT TEXT>
nM

>  <ENDPOINT RESULT>
41.9

$$$$
>  <SEQUENCE RECORD>
UUAUGAUGUUCCGAUACCAGCCAUGUAGUUCUAACUUAACAUGAGGAUCACCCAUGUACCGGCCCUUGGCAGCGGAUGUGGAUUA [#22Same State - Theophylline B]

>  <TARGET SYSTEM>
MS2 coat protein

>  <UNIT TEXT>
nM

>  <ENDPOINT RESULT>
27

$$$$
>  <SEQUENCE RECORD>
GGACUCGUCACGGCCGCCACUGCGGUGGUGUGACAUGAGGAUCACCCAUGUUGUCAUGCGGCCCUUAGGACCGGGUGUCGCUUCC [#1 Exclusion - Tryptophan B Attempt #24 (HarryS)]

>  <TARGET SYSTEM>
MS2 coat protein

>  <UNIT TEXT>
nM

>  <ENDPOINT RESULT>
124

$$$$

Sure, the documented apparent KD of MS2 coat protein for GGACUAACCAGAAGGAGCGACACGCAGAAACUGCAAAAUCCUCCGCACGAGGAUCACCCGUGUCAGGUAGGUCGCUGGUUAGUCG is 38.6

# apparent KD of MS2 coat protein (sequence: GGUCGCCAACAUGGGUGGGUGACCCUGGAAGGAGCGAGCGAGAGCUCAGGUAGGUCGCCAGAACAUGAGGAUCACCCAUGUAAUA [(A)''-(M)'-(A)'(Arg1)-(Arg2)-(M1)-(M2)_Design14] ) is 38.3

Measured apparent KD of MS2 coat protein, AAAAUAAACUCGGCCGCCACUCAACGGACCCUUUGGACAUGAGGAUCACCCAUGUAUUUUGGAAAGAGGACCGGGAGAAAUAAAA [Exclusion - Trytophan B] : 8.32

apparent KD of MS2 coat protein in this record for AUAUAUACAUGAGGAUCACCCAUGUUAUUUCGAGGACCGGUACGGCCGCCACUCGAUAGAGUAGAAGUAAAUUUUGUUACAUGUA [JR_SSTryptoA_Sub010] : 10.4

apparent KD of MS2 coat protein in this record for ACGCCCAGGUAGGCUUAGUGGGAAAUGGAAGGAGCGCUGAUGCAAGCAGGUAGGUCGCCAACGAACAUGAGGAUCACCCAUGUAA [Same State - Arginine A (Freestyle 1)] : 14
